Values from the METLIN SMRT retention time set (Domingo-Almenara et al. 2019)

Test: gradient 5% acetonitrile 3 min, to 50% in 2 min, to 85% in 15 min, held 3 min, 100 µL/min
Conditions: column: Zorbax Extend-C18 2.1 x 50 mm; eluents: water / acetonitrile, 0.1% formic acid
TEST_READOUT: RP-LC retention time (s)
Numbers only, in s.

Please state RP-LC retention time for every molecule in the list that follows.
1. CN(C(=O)Cn1nc2n(c1=O)CCCCC2)c1ccccc1
2. Cc1nc(-c2noc(-c3ccccc3)n2)cn1CC(=O)N1CCN(c2ccc(F)cc2)CC1
3. CCOc1ccc(C(=O)NCCc2c[nH]c3ccc(C)cc23)cc1OCC
4. Cc1ccc2c(C(=O)NCCN3CCCCC3)cc(NC(=O)C3CCC3)cc2n1
5. Cc1cc(S(=O)(=O)N2CCc3nn(C)c(=O)n3CC2)ccc1Cl
6. N#Cc1ccc(Cl)cc1NC(=O)c1ccc(N2CCOCC2)nn1

[655, 868, 910, 562, 744, 843]

---

Please respond with reported RP-LC retention time for every item in the list.
Assay: gradient 5% acetonitrile 3 min, to 50% in 2 min, to 85% in 15 min, held 3 min, 100 µL/min
Details: column: Zorbax Extend-C18 2.1 x 50 mm; eluents: water / acetonitrile, 0.1% formic acid
One number for each entry, in s.

// known answers, use as guide
[
  {
    "COMPOUND": "COc1cccc(CNC(=O)Cn2c(-c3ccc(F)cc3)ncc(C#N)c2=O)c1",
    "RP-LC retention time, s": 873
  },
  {
    "COMPOUND": "O=C(CCCCCN1C(=O)c2cccc3cccc(c23)C1=O)NO",
    "RP-LC retention time, s": 694
  },
  {
    "COMPOUND": "CCOc1ccc(NC(=O)N2CCN(Cc3nc4ccc(C)cc4o3)CC2)cc1",
    "RP-LC retention time, s": 733
  }
]

Quick one: give me RP-LC retention time for each item below, same order please.
1. CCn1nc(C(=O)Nc2nc3c(SC)cccc3s2)cc1C
2. CCN(CCNC(=O)CCc1cc2ccc(C)cc2[nH]c1=O)Cc1ccccc1
3. Cc1ccc(NC(=O)C2CCCN(c3ncnc4c3nc3n4CCCCC3)C2)cc1 (stereo unspecified)
4. CC(C)CC(=O)N1CC(F)(F)C[C@H]1c1nnc(-c2cnccn2)o1
5. Nc1nc2c(cnn2CCc2ccccc2)c2nc(-c3ccco3)nn12
6. O=C(NCCCn1c(-c2ccncc2)nc2cccnc21)Nc1ccc(F)c(Cl)c1

1. 994
2. 639
3. 838
4. 703
5. 880
6. 693

List RP-LC retention time for every entry below, keeping the order given.
1. Cc1cccc(C(=O)N2CC(C)C(=O)Nc3ccccc32)c1 (stereo unspecified)
2. Cc1noc(-c2cccc(OC3CN(C(=O)Cc4ccsc4)C3)c2)n1

1. 688
2. 857

---

Test: gradient 5% acetonitrile 3 min, to 50% in 2 min, to 85% in 15 min, held 3 min, 100 µL/min
Conditions: column: Zorbax Extend-C18 2.1 x 50 mm; eluents: water / acetonitrile, 0.1% formic acid
TEST_READOUT: RP-LC retention time (s)
Give bare numbers, in s.

Known results for compounds:
[
  {
    "COMPOUND": "Cc1noc(C)c1S(=O)(=O)N1CCC(Cc2ccc(COc3ccncc3)cc2)CC1",
    "RP-LC retention time, s": 831
  },
  {
    "COMPOUND": "Cc1cccc2c(C(=O)NC(C)C)cc(N(C)C)nc12",
    "RP-LC retention time, s": 614
  },
  {
    "COMPOUND": "Cc1ccc(S(=O)(=O)N2C[C@@H](F)C[C@H]2C(=O)N2CCCCC2)cc1Cl",
    "RP-LC retention time, s": 826
  },
  {
    "COMPOUND": "CN1C(=O)c2cccnc2Sc2cc(NC(=O)Cc3cccc(F)c3)ccc21",
    "RP-LC retention time, s": 784
  },
  {
    "COMPOUND": "CSc1ccc(N2C(C)=NS(=O)(=O)c3cccnc32)cc1",
    "RP-LC retention time, s": 811
  }
]

Dear reader, for each entry below, please note its RP-LC retention time.
1. COc1cccc(CNC2=NCCNC23CCN(S(=O)(=O)c2ccc(F)cc2)CC3)c1
2. c1ccc(-c2nc3cc(-c4noc(C5CCOC5)n4)ccc3o2)cc1 (centres undefined)
3. Cc1cccc(NC(=O)Cn2ccc3sccc3c2=O)c1C
4. CC(C)C(=O)Nc1ccc(-n2cnc(C(=O)NCc3cc(F)cc(F)c3)c2)nc1
5. COc1ccc(NC(=O)Cn2c(N3CCOCC3)nc(C)cc2=O)cc1F
6. COc1ccc(C2(C(=O)NCC3Cn4cccc4C(=O)N3C)CC2)cc1 (centres undefined)
7. CCOC(=O)c1ccc(-n2ccc3nc(C)c(C(=O)OC)cc3c2=O)cc1
8. COc1cc(OC)c(/C=C2/C(=O)Nc3ccccc32)c(OC)c1

[695, 1100, 741, 785, 644, 707, 874, 986]

Fill in the blank: the reported RP-LC retention time of Cn1cnc(S(=O)(=O)N2CCC(C(=O)N3CCN(c4cccc(C(F)(F)F)c4)CC3)CC2)c1 is ____.
823

---

Assay: gradient 5% acetonitrile 3 min, to 50% in 2 min, to 85% in 15 min, held 3 min, 100 µL/min
Details: column: Zorbax Extend-C18 2.1 x 50 mm; eluents: water / acetonitrile, 0.1% formic acid
TEST_READOUT: RP-LC retention time

The examples below pair each entry with its known result.
[
  {
    "CHEMICAL_STRUCTURE": "Cc1c(C(=O)NCCN2CCCCCC2)sc2ncnc(N3CCN(C)CC3)c12",
    "RP-LC retention time": "551 s"
  },
  {
    "CHEMICAL_STRUCTURE": "CCN(CC)c1ccc(Nc2nc(-c3ccc(Cl)cc3)cs2)cc1",
    "RP-LC retention time": "791 s"
  },
  {
    "CHEMICAL_STRUCTURE": "Cc1cccc(CN2CCCn3nc(C(=O)NCc4ccc5c(c4)OCO5)cc3C2=O)c1",
    "RP-LC retention time": "861 s"
  },
  {
    "CHEMICAL_STRUCTURE": "CC(C)Cn1c(=O)c(N2CCN(S(=O)(=O)Cc3ccccc3)CC2)nc2ccncc21",
    "RP-LC retention time": "740 s"
  },
  {
    "CHEMICAL_STRUCTURE": "CCOc1ccc(N2CCn3c2nnc(C(=O)NCc2ccco2)c3=O)cc1",
    "RP-LC retention time": "684 s"
  }
]

For the 3 compounds below, give their RP-LC retention time values.
1. O=C(NCCNC(=O)Nc1cccc(Cl)c1)Nc1cccc(Cl)c1
2. NS(=O)(=O)c1cccnc1Nc1ccc(Br)cc1
3. O=C(NCc1ccc(F)cc1)Nc1ccc(-c2nc(-c3ccccc3)co2)cc1

["782 s", "913 s", "1050 s"]

---

Assay: gradient 5% acetonitrile 3 min, to 50% in 2 min, to 85% in 15 min, held 3 min, 100 µL/min
Conditions: column: Zorbax Extend-C18 2.1 x 50 mm; eluents: water / acetonitrile, 0.1% formic acid
I would appreciate it if you labelled entries satisfied when RP-LC retention time is 800 s or higher, otherwise not satisfied.

Check if RP-LC retention time >= 800 s (inclusive). Item: C=CCN1CCN(C(=O)[C@@H]2[C@H](c3cc(OC)c(OC)c(OC)c3)c3cc4c(cc3[C@H](O)[C@H]2CO)OCO4)CC1
not satisfied

---

Assay: gradient 5% acetonitrile 3 min, to 50% in 2 min, to 85% in 15 min, held 3 min, 100 µL/min
Settings: column: Zorbax Extend-C18 2.1 x 50 mm; eluents: water / acetonitrile, 0.1% formic acid
Provide the reported RP-LC retention time of each item.
Answers are plain numbers, in s.

Recorded RP-LC retention time, per entry:
[
  {
    "MOLECULE": "CCc1cccc(NS(=O)(=O)c2cc3n(c2)CCCN(CC)C3=O)c1",
    "UOM": "s",
    "RP-LC retention time": 756
  },
  {
    "MOLECULE": "COc1ccc(-c2noc(Cn3nc(-c4ccc(C)cc4)ccc3=O)n2)cc1OC",
    "UOM": "s",
    "RP-LC retention time": 962
  },
  {
    "MOLECULE": "O=C(c1c(F)cccc1F)N1CCN=C1N1CCCCC1",
    "UOM": "s",
    "RP-LC retention time": 623
  },
  {
    "MOLECULE": "O=C(CC1CCCC1)NCCc1noc(C2CC2)n1",
    "UOM": "s",
    "RP-LC retention time": 713
  },
  {
    "MOLECULE": "CC1(C(=O)NCc2ccccc2)Cn2cnc(C(=O)NCCc3ccccc3)c2C(=O)N1C1CC1 (configuration not stated)",
    "UOM": "s",
    "RP-LC retention time": 754
  }
]

# batch size: 6; output RP-LC retention time per entry
1. COCCn1cc(C(=O)NC2CCCCC2)c2nn(-c3ccccc3)c(=O)c-2c1
2. CC(C(=O)NCCCN1CCC(N2CCCCC2)CC1)n1c(=O)c(C(F)(F)F)nc2ccccc21 (configuration not stated)
3. Nc1nnc(SCc2nnc(-c3ccccc3)o2)s1
4. COc1ccc(NC(=O)N2CCCC2c2nncn2C2CCCC2)c(OC)c1 (configuration not stated)
5. CCCCOc1ccc(-c2cc3c4nnc(CCC(=O)N5CCN(C)CC5)n4ccn3n2)cc1
6. O=C(c1cnn2c1CCCC2)N1CCCC1

1: 925; 2: 595; 3: 654; 4: 662; 5: 686; 6: 614
